target: T1, KDR1-3 domains (UniProt P35968 20-327, limits assumed); test: Octet BLI, KDR1-3 domains on biosensor, scFv in solution
T1 construct: domain: KDR1-3 domains; Immobilized on the Octet biosensor; also called KDR D1-D3; KDR1-3 domain-Fc (as used for panning)
T1 sequence (P35968 20-327 limits assumed): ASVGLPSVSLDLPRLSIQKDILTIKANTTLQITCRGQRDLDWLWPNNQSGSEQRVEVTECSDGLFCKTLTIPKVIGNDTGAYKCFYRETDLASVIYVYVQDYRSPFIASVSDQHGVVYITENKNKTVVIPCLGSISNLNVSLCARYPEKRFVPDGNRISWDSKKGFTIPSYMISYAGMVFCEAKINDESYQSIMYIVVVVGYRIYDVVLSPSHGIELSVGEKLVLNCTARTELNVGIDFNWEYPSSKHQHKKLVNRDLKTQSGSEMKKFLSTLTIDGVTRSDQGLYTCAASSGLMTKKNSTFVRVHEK
MEASURE: koff (s⁻¹)
Use s⁻¹ as the unit, but write only the number.

INPUT: Report koff for A5 (scFv form) (scFv, V domains shown, Tested as scFv) VH: EVQLVESGGGLVQPGGSLRLSCAASGYTFSSYWMSWVRQAPGKGLEWVSEINPGNGHTNYNEKFKSRFTISRDKSKNTLYLQMNSLRAEDTAVYYCARHWGPSLTSPFDYWGQGTLVTVSS VL: DIQMTQSPSSLSASVGDRVTITCRADNLGDVNVHWYQQKPGKAPKLLIYYDADRPSGVPSRFSGSNSGNDATLTISSLQPEDFATYYCQAPTTHLPYTFGQGTKVEIKR please.
OUTPUT: 0.000187
